System: SW756 (Cervical Carcinoma)
Assay: Bliss excess, mean over the matrix (fraction); higher = more synergy
measure: Bliss excess

compound	measure	experimental_result
CC1(C)CCC(CN2CCN(c3ccc(C(=O)NS(=O)(=O)c4ccc(NCC5CCOCC5)c([N+](=O)[O-])c4)c(Oc4cnc5[nH]ccc5c4)c3)CC2)=C(c2ccc(Cl)cc2)C1 [Venetoclax] + C1CN(CCC1(C(=O)N[C@@H](CCO)C2=CC=C(C=C2)Cl)N)C3=NC=NC4=C3C=CN4 [Capivasertib] (first compound max 1 µM, 7x7, partner max 3 µM)	Bliss excess	-0.0171
CC1(C)CCC(CN2CCN(c3ccc(C(=O)NS(=O)(=O)c4ccc(NCC5CCOCC5)c([N+](=O)[O-])c4)c(Oc4cnc5[nH]ccc5c4)c3)CC2)=C(c2ccc(Cl)cc2)C1 [Venetoclax] + Cn1cnc2c(F)c(Nc3ccc(Br)cc3Cl)c(C(=O)NOCCO)cc21 [Selumetinib] (first compound max 1 µM, 7x7, partner max 3 µM)	Bliss excess	-0.0537

====

System: JiyoyeP-2003 (Burkitt's Lymphoma)
Assay: combination Emax (second highest fraction inhibited in the dose matrix, 72 h); higher = more inhibition; extreme values may be limits of the assay
combination Emax: recorded values

compound	combination Emax
Cc1nc(Nc2ncc(C(=O)Nc3c(C)cccc3Cl)s2)cc(N2CCN(CCO)CC2)n1 [Dasatinib] + CC(=O)Nc1cccc(-n2c(=O)n(C3CC3)c(=O)c3c(Nc4ccc(I)cc4F)n(C)c(=O)c(C)c32)c1 [Trametinib] (first compound max 2 µM, 7x7, partner max 1 µM)	0.715
CC1(C)CCC(CN2CCN(c3ccc(C(=O)NS(=O)(=O)c4ccc(NCC5CCOCC5)c([N+](=O)[O-])c4)c(Oc4cnc5[nH]ccc5c4)c3)CC2)=C(c2ccc(Cl)cc2)C1 [Venetoclax] + Cn1cnc2c(F)c(Nc3ccc(Br)cc3Cl)c(C(=O)NOCCO)cc21 [Selumetinib] (first compound max 1 µM, 7x7, partner max 3 µM)	0.304
C[C@@H](c1ccc2nccn2c1)n1nnc2ncc(-c3cnn(C)c3)nc21 [Savolitinib] + Cc1c2c(nn1C)CSCc1cc(n(C)n1)CSc1cc(c3ccccc3c1)OCCCc1c(C(=O)O)n(C)c3c-2c(Cl)ccc13 [AZD5991] (first compound max 1 µM, 7x7, partner max 1 µM)	0.166

====

Listed here: items and their measured Bliss excess.
Test system: CAL-78 (Chondrosarcoma)
Experiment: Bliss excess, mean over the matrix (fraction); higher = more synergy

compound	Bliss excess
C=CCn1c(=O)c2cnc(Nc3ccc(N4CCN(C)CC4)cc3)nc2n1-c1cccc(C(C)(C)O)n1 [AZD1775] + C[C@@H]1COCCN1C2=NC(=NC(=C2)C3(CC3)[S@](=N)(=O)C)C4=C5C=CNC5=NC=C4 [AZD6738] (first compound max 1 µM, partner max 10 µM)	0.0171
CC1(C)CCC(CN2CCN(c3ccc(C(=O)NS(=O)(=O)c4ccc(NCC5CCOCC5)c([N+](=O)[O-])c4)c(Oc4cnc5[nH]ccc5c4)c3)CC2)=C(c2ccc(Cl)cc2)C1 [Venetoclax] + Cc1cc2ncnn2cc1Nc1ncc2c(n1)n(C1CCOCC1)c(=O)n2C [AZD7648] (first compound max 1 µM, 7x7, partner max 10 µM)	0.0236
CS(=O)(=O)CCNCc1ccc(-c2ccc3ncnc(Nc4ccc(OCc5cccc(F)c5)c(Cl)c4)c3c2)o1 [Lapatinib] + C[C@@H](Oc1cc(-c2cnn(C3CCNCC3)c2)cnc1N)c1c(Cl)ccc(F)c1Cl [Crizotinib] (first compound max 10 µM, 7x7, partner max 10 µM)	-0.072
CN(CCO)CC[C@H](CSc1ccccc1)Nc1ccc(S(=O)(=O)NC(=O)c2ccc(N3CCC([C@@H](O)c4ccccc4-c4ccc(Cl)cc4)CC3)cc2)cc1S(=O)(=O)C(F)(F)F [AZD4320] + CN(C)CCCOc1ccc(-c2ccc3ncc4c(c3c2)n(C2CCOCC2)c(=O)n4C)cn1 [AZD0156] (first compound max 1 µM, 7x7, partner max 1 µM)	-0.004
Cc1c2c(nn1C)CSCc1cc(n(C)n1)CSc1cc(c3ccccc3c1)OCCCc1c(C(=O)O)n(C)c3c-2c(Cl)ccc13 [AZD5991] + CC1(C)CCC(CN2CCN(c3ccc(C(=O)NS(=O)(=O)c4ccc(NCC5CCOCC5)c([N+](=O)[O-])c4)c(Oc4cnc5[nH]ccc5c4)c3)CC2)=C(c2ccc(Cl)cc2)C1 [Venetoclax] (first compound max 1 µM, 7x7, partner max 1 µM)	-0.0118
Cc1nc(Nc2ncc(C(=O)Nc3c(C)cccc3Cl)s2)cc(N2CCN(CCO)CC2)n1 [Dasatinib] + CC(=O)Nc1cccc(-n2c(=O)n(C3CC3)c(=O)c3c(Nc4ccc(I)cc4F)n(C)c(=O)c(C)c32)c1 [Trametinib] (first compound max 2 µM, 7x7, partner max 1 µM)	-0.108
CC(=O)c1c(C)c2cnc(Nc3ccc(N4CCNCC4)cn3)nc2n(C2CCCC2)c1=O [Palbociclib] + CN(CC[C@H](CSC1=CC=CC=C1)NC2=C(C=C(C=C2)S(=O)(=O)NC(=O)C3=CC=C(C=C3)N4CCC(CC4)[C@H](C5=CC=CC=C5C6=CC=C(C=C6)Cl)O)S(=O)(=O)C(F)(F)F)CCO [AZD4320] (first compound max 10 µM, 7x7, partner max 1 µM)	-0.0873

====

Test system: U-266 (Plasma Cell Myeloma)
Experiment: combination Emax (second highest fraction inhibited in the dose matrix, 72 h); higher = more inhibition; extreme values may be limits of the assay
measure: combination Emax

compound	measure	experimental_result
CN(CCO)CC[C@H](CSc1ccccc1)Nc1ccc(S(=O)(=O)NC(=O)c2ccc(N3CCC([C@@H](O)c4ccccc4-c4ccc(Cl)cc4)CC3)cc2)cc1S(=O)(=O)C(F)(F)F [AZD4320] + CC(=O)O[C@H]1C(=O)[C@@]2(C)[C@H]([C@H](OC(=O)c3ccccc3)[C@]3(O)C[C@H](OC(=O)[C@H](O)[C@@H](NC(=O)c4ccccc4)c4ccccc4)C(C)=C1C3(C)C)[C@]1(OC(C)=O)CO[C@@H]1C[C@@H]2O [Paclitaxel] (first compound max 1 µM, 7x7, partner max 3 µM)	combination Emax	0.966
CN(CCO)CC[C@H](CSc1ccccc1)Nc1ccc(S(=O)(=O)NC(=O)c2ccc(N3CCC([C@@H](O)c4ccccc4-c4ccc(Cl)cc4)CC3)cc2)cc1S(=O)(=O)C(F)(F)F [AZD4320] + C[C@@H](Nc1cc(F)cc(F)c1)c1cc(C(=O)N(C)C)cc2c(=O)cc(N3CCOCC3)oc12 [AZD8186] (first compound max 1 µM, 7x7, partner max 3 µM)	combination Emax	0.481
NC1(C(=O)N[C@@H](CCO)c2ccc(Cl)cc2)CCN(c2ncnc3[nH]ccc23)CC1 [Capivasertib] + COc1nnc2ccc(N3CCC(c4ccc(OCCN5CCN(C)C(=O)[C@H]5C)cc4)CC3)nn12 [AZD5153] (first compound max 10 µM, 7x7, partner max 1 µM)	combination Emax	0.38

====

Entries and their combination Emax values follow.
Test system: MDA-MB-231 (Breast Carcinoma)
Assay: combination Emax (second highest fraction inhibited in the dose matrix, 72 h); higher = more inhibition; extreme values may be limits of the assay
measure: combination Emax

molecule	measure	experimental_result
Cc1c2c(nn1C)CSCc1cc(n(C)n1)CSc1cc(c3ccccc3c1)OCCCc1c(C(=O)O)n(C)c3c-2c(Cl)ccc13 [AZD5991] + Cc1cc2ncnn2cc1Nc1ncc2c(n1)n(C1CCOCC1)c(=O)n2C [AZD7648] (first compound max 1 µM, 7x7, partner max 10 µM)	combination Emax	0.333
O=C(c1cc(Cc2n[nH]c(=O)c3ccccc23)ccc1F)N1CCN(C(=O)C2CC2)CC1 [Olaparib] + CN(CC[C@H](CSC1=CC=CC=C1)NC2=C(C=C(C=C2)S(=O)(=O)NC(=O)C3=CC=C(C=C3)N4CCC(CC4)[C@H](C5=CC=CC=C5C6=CC=C(C=C6)Cl)O)S(=O)(=O)C(F)(F)F)CCO [AZD4320] (first compound max 10 µM, 7x7, partner max 1 µM)	combination Emax	0.668
Cn1cnc2c(F)c(Nc3ccc(Br)cc3Cl)c(C(=O)NOCCO)cc21 [Selumetinib] + C[C@@H]1COCCN1C2=NC(=NC(=C2)C3(CC3)[S@](=N)(=O)C)C4=C5C=CNC5=NC=C4 [AZD6738] (first compound max 10 µM, 7x7, partner max 10 µM)	combination Emax	0.718
Cc1nc(-c2cn3c(n2)-c2ccc(-c4cnn(C(C)(C)C(N)=O)c4)cc2OCC3)n(C(C)C)n1 [Taselisib] + O=C(Nc1ccc2[nH]nc(-c3ccncc3)c2c1)[C@@H]1CCN(CC(=O)N2CCN(c3ccc(-c4ncccn4)cc3)CC2)C1 [SCH772984] (first compound max 10 µM, 7x7, partner max 5 µM)	combination Emax	0.834

====

System: U-266 (Plasma Cell Myeloma)
Assay: combination Emax (second highest fraction inhibited in the dose matrix, 72 h); higher = more inhibition; extreme values may be limits of the assay

molecule	tested_system	combination Emax
Cc1c2c(nn1C)CSCc1cc(n(C)n1)CSc1cc(c3ccccc3c1)OCCCc1c(C(=O)O)n(C)c3c-2c(Cl)ccc13 [AZD5991] + C[C@@H](Nc1cc(F)cc(F)c1)c1cc(C(=O)N(C)C)cc2c(=O)cc(N3CCOCC3)oc12 [AZD8186] (first compound max 1 µM, 7x7, partner max 3 µM)	U-266 (Plasma Cell Myeloma)	0.894
CN(C)CCCOc1ccc(-c2ccc3ncc4c(c3c2)n(C2CCOCC2)c(=O)n4C)cn1 [AZD0156] + O=C(c1cc(Cc2n[nH]c(=O)c3ccccc23)ccc1F)N1CCN(C(=O)C2CC2)CC1 [Olaparib] (first compound max 3 µM, partner max 3 µM)	U-266 (Plasma Cell Myeloma)	0.171
CN(C)CCCOc1ccc(-c2ccc3ncc4c(c3c2)n(C2CCOCC2)c(=O)n4C)cn1 [AZD0156] + C=CCn1c(=O)c2cnc(Nc3ccc(N4CCN(C)CC4)cc3)nc2n1-c1cccc(C(C)(C)O)n1 [AZD1775] (first compound max 1 µM, partner max 1 µM)	U-266 (Plasma Cell Myeloma)	0.737
C[C@@H]1COCCN1c1cc(C2([S@](C)(=N)=O)CC2)nc(-c2ccnc3[nH]ccc23)n1 [AZD6738] + Nc1ccn([C@@H]2O[C@H](CO)[C@@H](O)C2(F)F)c(=O)n1 [Gemcitabine] (first compound max 10 µM, 7x7, partner max 0.3 µM)	U-266 (Plasma Cell Myeloma)	0.747
